biological target: Protein cereblon/Androgen receptor (Homo sapiens, UniProt P10275+Q96SW2); assay: PROTAC activity at CRBN/AR in human 22Rv1 cells assessed as induction of AR degradation at 0.1 uM incubated for 24 hrs by Western blot analysis relative to control; assay type: cell-based
Sequence (P10275 whole entry, looked up): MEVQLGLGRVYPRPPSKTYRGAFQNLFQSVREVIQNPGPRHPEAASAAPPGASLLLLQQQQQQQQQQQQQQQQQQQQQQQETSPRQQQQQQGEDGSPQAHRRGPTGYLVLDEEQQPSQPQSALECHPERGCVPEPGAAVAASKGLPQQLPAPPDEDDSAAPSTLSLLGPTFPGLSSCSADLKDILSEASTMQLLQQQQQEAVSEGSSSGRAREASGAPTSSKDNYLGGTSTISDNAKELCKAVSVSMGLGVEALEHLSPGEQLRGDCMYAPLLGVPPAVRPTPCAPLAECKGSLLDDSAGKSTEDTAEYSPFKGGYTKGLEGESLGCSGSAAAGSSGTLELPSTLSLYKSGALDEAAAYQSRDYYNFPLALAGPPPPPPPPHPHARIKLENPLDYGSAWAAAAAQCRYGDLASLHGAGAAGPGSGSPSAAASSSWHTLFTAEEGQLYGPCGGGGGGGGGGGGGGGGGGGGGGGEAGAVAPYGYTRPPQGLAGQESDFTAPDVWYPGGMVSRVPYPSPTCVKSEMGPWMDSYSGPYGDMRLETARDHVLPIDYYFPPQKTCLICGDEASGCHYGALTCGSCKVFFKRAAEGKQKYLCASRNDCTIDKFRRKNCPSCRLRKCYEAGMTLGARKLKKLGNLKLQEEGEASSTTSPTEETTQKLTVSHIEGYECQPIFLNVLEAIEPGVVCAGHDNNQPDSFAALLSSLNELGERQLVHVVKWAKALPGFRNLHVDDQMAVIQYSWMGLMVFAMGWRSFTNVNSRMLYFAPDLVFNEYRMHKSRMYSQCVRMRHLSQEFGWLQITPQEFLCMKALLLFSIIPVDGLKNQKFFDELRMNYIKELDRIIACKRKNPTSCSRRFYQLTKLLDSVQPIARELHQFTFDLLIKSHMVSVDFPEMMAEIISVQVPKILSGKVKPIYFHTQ
Sequence (Q96SW2 whole entry, looked up): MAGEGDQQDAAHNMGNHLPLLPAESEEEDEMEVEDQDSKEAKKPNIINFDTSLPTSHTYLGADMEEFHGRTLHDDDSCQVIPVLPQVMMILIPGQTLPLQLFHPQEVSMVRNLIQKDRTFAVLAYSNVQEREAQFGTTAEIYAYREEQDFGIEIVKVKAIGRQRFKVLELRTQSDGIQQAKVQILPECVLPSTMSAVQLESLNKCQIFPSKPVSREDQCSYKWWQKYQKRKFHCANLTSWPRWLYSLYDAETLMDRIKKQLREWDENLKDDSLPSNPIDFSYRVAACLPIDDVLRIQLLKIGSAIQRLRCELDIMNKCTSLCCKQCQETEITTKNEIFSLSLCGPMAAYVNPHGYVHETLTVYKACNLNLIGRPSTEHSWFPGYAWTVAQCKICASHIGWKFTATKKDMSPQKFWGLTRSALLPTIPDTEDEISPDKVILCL
Labelling field: enter class 1 if recorded Activity is less than 80%. Enter class 0 if it equals or exceeds that cut-off.

query: Please state whether Activity is below 80% for COc1ccc(C(C)(C)c2cc(Cl)c(OCC3CCN(C(=O)CCCCCNc4cc5c(cc4F)C(=O)N(C4CCC(=O)NC4=O)C5=O)CC3)c(C#N)c2)cc1 (configuration not stated)
result: class 1

query: Please state whether Activity is below 80% for COc1ccc(C(C)(C)c2cc(Cl)c(OCC3CCN(C(=O)CCCCCNc4ccc(C(=O)N[C@H]5CCC(=O)NC5=O)c(F)c4)CC3)c(C#N)c2)cc1
result: class 1

query: Please state whether Activity is below 80% for CC(C)(c1ccc(OCc2cncnc2)cc1)c1cc(Cl)c(OCC2CCN(C(=O)CCCCCNc3ccc4c(c3)C(=O)N(C3CCC(=O)NC3=O)C4=O)CC2)c(C#N)c1 (configuration not stated)
result: class 0

query: Please state whether Activity is below 80% for CC(C)(c1ccc(OCC2CCOC2)cc1)c1cc(Cl)c(OCC2CCN(C(=O)CCCCCNc3ccc4c(c3)C(=O)N(C3CCC(=O)NC3=O)C4=O)CC2)c(C#N)c1 (configuration not stated)
result: class 1

query: Please state whether Activity is below 80% for CC(C)(c1ccc(OCCCCl)cc1)c1ccc(OCC2CCN(C(=O)CCCCCNc3ccc4c(c3)C(=O)N(C3CCC(=O)NC3=O)C4=O)CC2)cc1 (configuration not stated)
result: class 1

query: Please state whether Activity is below 80% for COc1ccc(C(C)(C)c2cc(Cl)c(OCC3CCN(C(=O)CCCCCNc4ccc5c(c4)C(=O)N(C4CCC(=O)NC4=O)C5=O)CC3)c(C#N)c2)cc1 (configuration not stated)
result: class 0

query: Please state whether Activity is below 80% for COc1ccc(C(C)(C)c2cc(Cl)c(OCC3CCN(C(=O)CCCCCNc4ccc5c(c4)C(=O)N(C4CCC(=O)N(C)C4=O)C5=O)CC3)c(C#N)c2)cc1 (configuration not stated)
result: class 1

###

tested on: Protein cereblon/Androgen receptor (Homo sapiens), P10275+Q96SW2 [UNDEFINED MUTATION]; test: PROTAC activity at CRBN/Androgen receptor splice variant 7 in human VCaP cells assessed as induction of AR-V7 degradation at 0.01 uM incubated for 24 hrs by Western blot analysis relative to control; format: cell-based
Sequence (P10275 whole entry, looked up, change not shown, canonical isoform): as the sequence (P10275 whole entry, looked up) above
Sequence (Q96SW2 whole entry, looked up, change not shown, canonical isoform): as the sequence (Q96SW2 whole entry, looked up) above
So I've got a bunch of molecules here, and I need their Activity values.

query: // lookup Activity for CC1(COc2ccc(C(C)(C)c3cc(Cl)c(OCC4CCN(C(=O)CCCCCNc5ccc6c(c5)C(=O)N(C5CCC(=O)NC5=O)C6=O)CC4)c(C#N)c3)cc2)COC1 (stereo unspecified)
result: 49.5%

query: // lookup Activity for COc1ccc(C(C)(C)c2cc(Cl)c(OCC3CCN(C(=O)CCCCCNc4ccc5c(c4)C(=O)N(C4CCC(=O)N(C)C4=O)C5=O)CC3)c(C#N)c2)cc1 (stereo unspecified)
result: < 5%

query: // lookup Activity for CC(C)(c1ccc(OCC2CCN(S(C)(=O)=O)CC2)cc1)c1cc(Cl)c(OCC2CCN(C(=O)CCCCCNc3ccc4c(c3)C(=O)N(C3CCC(=O)NC3=O)C4=O)CC2)c(C#N)c1 (stereo unspecified)
result: < 5%

query: // lookup Activity for CC(C)(c1ccc(OCc2ccccc2)cc1)c1cc(Cl)c(OCC2CCN(C(=O)CCCCCNc3ccc4c(c3)C(=O)N(C3CCC(=O)NC3=O)C4=O)CC2)c(C#N)c1 (stereo unspecified)
result: < 5%

query: // lookup Activity for CC(C)(c1ccc(OCc2ccncn2)cc1)c1cc(Cl)c(OCC2CCN(C(=O)CCCCCNc3ccc4c(c3)C(=O)N(C3CCC(=O)NC3=O)C4=O)CC2)c(C#N)c1 (stereo unspecified)
result: 72.3%

query: // lookup Activity for CC(C)(c1ccc(OCC2CCN(C(=O)CCCCCNc3ccc4c(c3)C(=O)N(C3CCC(=O)NC3=O)C4=O)CC2)cc1)c1ccc(OC[C@H](O)CCl)cc1 (stereo partly specified)
result: 49.9%

###

molecular target: Protein cereblon/Androgen receptor (Homo sapiens, UniProt P10275+Q96SW2); test: PROTAC activity at CRBN/AR in human 22Rv1 cells assessed as induction of AR degradation at 0.01 uM incubated for 24 hrs by Western blot analysis relative to control; format: cell-based
Rule: yes (1) for Activity not less than 70%, no (0) for anything less.

query: Check if Activity >= 70% (inclusive). Item: COc1ccc(C(C)(C)c2ccc(OCC3CCN(C(=O)CCCCCNc4ccc5c(c4)C(=O)N(C4CCC(=O)NC4=O)C5=O)CC3)cc2)cc1 (stereo unspecified)
result: no (0)

query: Check if Activity >= 70% (inclusive). Item: CC1(COc2ccc(C(C)(C)c3cc(Cl)c(OCC4CCN(C(=O)CCCCCNc5ccc6c(c5)C(=O)N(C5CCC(=O)NC5=O)C6=O)CC4)c(C#N)c3)cc2)COC1 (stereo unspecified)
result: no (0)

query: Check if Activity >= 70% (inclusive). Item: CC(C)(c1ccc(OCC2CCOC2)cc1)c1cc(Cl)c(OCC2CCN(C(=O)CCCCCNc3ccc4c(c3)C(=O)N(C3CCC(=O)NC3=O)C4=O)CC2)c(C#N)c1 (stereo unspecified)
result: yes (1)

query: Check if Activity >= 70% (inclusive). Item: CC(C)(c1ccc(OCC2CCOCC2)cc1)c1cc(Cl)c(OCC2CCN(C(=O)CCCCCNc3ccc4c(c3)C(=O)N(C3CCC(=O)NC3=O)C4=O)CC2)c(C#N)c1 (stereo unspecified)
result: no (0)

query: Check if Activity >= 70% (inclusive). Item: CC(C)(c1ccc(OCC2COC2)cc1)c1cc(Cl)c(OCC2CCN(C(=O)CCCCCNc3ccc4c(c3)C(=O)N(C3CCC(=O)NC3=O)C4=O)CC2)c(C#N)c1 (stereo unspecified)
result: yes (1)

###

target: Protein cereblon/Androgen receptor (Homo sapiens, UniProt P10275+Q96SW2); test: PROTAC activity at CRBN/AR in human 22Rv1 cells assessed as induction of AR degradation at 0.01 uM incubated for 24 hrs by Western blot analysis relative to control; format: cell-based
readout_type: Activity (%)
Use % as the unit, but write only the number.

query: // lookup Activity for COc1ccc(C(C)(C)c2cc(Cl)c(OCC3CCN(C(=O)CCCCCNc4ccc5c(c4)C(=O)N(C4CCC(=O)NC4=O)C5=O)CC3)c(Cl)c2)cc1 (stereo unspecified)
result: 39.7

query: // lookup Activity for CC(C)(c1ccc(OCCCCl)cc1)c1ccc(OCC2CCN(C(=O)CCCCCNc3ccc4c(c3)C(=O)N(C3CCC(=O)NC3=O)C4=O)CC2)cc1 (stereo unspecified)
result: 13.9

query: // lookup Activity for COc1ccc(C(C)(C)c2cc(Cl)c(OCC3CCN(C(=O)CCCCCNc4ccc5c(c4)C(=O)N(C4CCC(=O)NC4=O)C5=O)CC3)c(C#N)c2)cc1 (stereo unspecified)
result: 75.2

query: // lookup Activity for COc1ccc(C(C)(C)c2cc(Cl)c(OCC3CCN(C(=O)CCCCCNc4ccc(C(=O)N[C@H]5CCC(=O)NC5=O)c(F)c4)CC3)c(C#N)c2)cc1
result: 23.9

query: // lookup Activity for CC(C)(c1ccc(OCc2cncnc2)cc1)c1cc(Cl)c(OCC2CCN(C(=O)CCCCCNc3ccc4c(c3)C(=O)N(C3CCC(=O)NC3=O)C4=O)CC2)c(C#N)c1 (stereo unspecified)
result: 80.3

query: // lookup Activity for CC(C)(c1ccc(OCC2CN(S(C)(=O)=O)C2)cc1)c1cc(Cl)c(OCC2CCN(C(=O)CCCCCNc3ccc4c(c3)C(=O)N(C3CCC(=O)NC3=O)C4=O)CC2)c(C#N)c1 (stereo unspecified)
result: 51.3

query: // lookup Activity for CC(C)(c1ccc(OCc2ccncn2)cc1)c1cc(Cl)c(OCC2CCN(C(=O)CCCCCNc3ccc4c(c3)C(=O)N(C3CCC(=O)NC3=O)C4=O)CC2)c(C#N)c1 (stereo unspecified)
result: 75.1

query: // lookup Activity for CC(C)(c1ccc(OCC2CCN(C(=O)CCCCCNc3ccc4c(c3)C(=O)N(C3CCC(=O)NC3=O)C4=O)CC2)cc1)c1ccc(OC[C@H](O)CCl)cc1 (stereo partly specified)
result: 31.4

###

So I've got a bunch of compounds here, and I need their Activity values.
biological target: Protein cereblon/Androgen receptor (Homo sapiens, UniProt P10275+Q96SW2); test: PROTAC activity at CRBN/AR in human VCaP cells assessed as induction of AR degradation at 0.01 uM incubated for 24 hrs by Western blot analysis relative to control; type: cell-based
Use % as the unit, but write only the number.

query: // lookup Activity for CC(C)(c1ccc(OCc2cncnc2)cc1)c1cc(Cl)c(OCC2CCN(C(=O)CCCCCNc3ccc4c(c3)C(=O)N(C3CCC(=O)NC3=O)C4=O)CC2)c(C#N)c1 (stereo not given)
result: 72.4

query: // lookup Activity for CC(C)(c1ccc(OCC2CN(S(C)(=O)=O)C2)cc1)c1cc(Cl)c(OCC2CCN(C(=O)CCCCCNc3ccc4c(c3)C(=O)N(C3CCC(=O)NC3=O)C4=O)CC2)c(C#N)c1 (stereo not given)
result: 53.6

query: // lookup Activity for COc1ccc(C(C)(C)c2cc(Cl)c(OCC3CCN(C(=O)CCCCCNc4ccc5c(c4)C(=O)N(C4CCC(=O)N(C)C4=O)C5=O)CC3)c(C#N)c2)cc1 (stereo not given)
result: 18.8

query: // lookup Activity for COc1ccc(C(C)(C)c2ccc(OCC3CCN(C(=O)CCCCCNc4ccc5c(c4)C(=O)N(C4CCC(=O)NC4=O)C5=O)CC3)cc2)cc1 (stereo not given)
result: 20.7
